- assay system: mu opioid receptor (Rattus norvegicus)
- Sequence (P33535 whole entry): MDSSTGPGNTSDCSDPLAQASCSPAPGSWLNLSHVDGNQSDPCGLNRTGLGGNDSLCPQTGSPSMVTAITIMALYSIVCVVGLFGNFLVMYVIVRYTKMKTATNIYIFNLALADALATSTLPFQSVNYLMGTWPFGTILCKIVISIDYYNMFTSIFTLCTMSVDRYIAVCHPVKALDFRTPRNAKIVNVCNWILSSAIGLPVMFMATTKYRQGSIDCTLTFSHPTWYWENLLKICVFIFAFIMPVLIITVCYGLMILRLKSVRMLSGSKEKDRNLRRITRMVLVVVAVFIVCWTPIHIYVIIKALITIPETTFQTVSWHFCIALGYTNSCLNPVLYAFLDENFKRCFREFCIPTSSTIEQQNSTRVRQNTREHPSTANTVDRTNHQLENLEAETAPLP
- experiment summary: Rat brain mu opioid receptor binding assay ([3H]DAMGO)
- test parameters: Rat mu opioid receptor binding constant; rat forebrain membranes, ~0.8 nM [3H]DAMGO; read-out: MOR Ki
quantity kind: log10 of Ki (log10 of the value in µM)
Friendly reminder: values = log10 of Ki, unit µM.

**Q:** Fill blank: measured log10 of Ki of the compound O=C(O)c1ccc2c(c1)Oc1ccccc1C2=C1CC2CCC(C1)N2 [Cpd 72] is ____.
**A:** 0.29

**Q:** Request the reported log10 of Ki associated with COc1cccc2c1Oc1cc(-c3ccncc3)ccc1C2=C1CC2CCC(C1)N2 [Cpd 107]
**A:** -0.22

**Q:** Look at this compound and give its reported log10 of Ki. O=C(NCc1ccccc1)c1ccc2c(c1)Oc1ccccc1C2=C1CC2CCC(C1)N2 [Cpd 40]
**A:** 0.49

**Q:** Bench note: what log10 of Ki did O=C(NCc1cccc(F)c1)c1ccc2c(c1)Oc1ccccc1C2=C1CC2CCC(C1)N2 [Cpd 11] show?
**A:** -0.13

**Q:** Query (compound): CC(C)(CO)NC(=O)c1ccc2c(c1)Oc1ccccc1C2=C1CC2CCC(C1)N2 [Cpd 97] ; field requested: log10 of Ki
**A:** 0.28

**Q:** Give the measured log10 of Ki of COc1cccc2c1Oc1cc(-c3cccnc3)ccc1C2=C1CC2CCC(C1)N2 [Cpd 71] .
**A:** 0.06

**Q:** Could you share which log10 of Ki value was measured for Oc1cccc2c1Oc1cc(-c3cnc4ccccc4c3)ccc1C2=C1CC2CCC(C1)N2 [Cpd 109] ?
**A:** -1.51

**Q:** Report log10 of Ki for c1cncc(-c2ccc3c(c2)Sc2ccccc2C3=C2CC3CCC(C2)N3Cc2ccoc2)c1 [Cpd 116] please.
**A:** -0.95

**Q:** // lookup log10 of Ki for O=c1[nH]c(-c2ccc3c(c2)Oc2ccccc2C3=C2CC3CCC(C2)N3)ns1 [Cpd 95]
**A:** 0.69

**Q:** What does the data say about its log10 of Ki? Entry: O=C(c1ccc2c(c1)Oc1ccccc1C2=C1CC2CCC(C1)N2)N(CC(F)(F)F)CC(F)(F)F [Cpd 48]
**A:** 0.31

**Q:** Which log10 of Ki is listed for CC(=O)Nc1ccccc1-c1ccc2c(c1)Sc1ccccc1C2=C1CC2CCC(C1)N2Cc1ccccn1 [Cpd 121] ?
**A:** -0.86

**Q:** I have this compound here, O=C(NC1CCC(c2ccccc2)CC1)c1ccc2c(c1)Oc1ccccc1C2=C1CC2CCC(C1)N2 (stereo not shown) [Cpd 34] , and I need its recorded log10 of Ki.
**A:** 0.80

**Q:** Look at this compound and give its reported log10 of Ki. O=C(NCCO)c1ccc2c(c1)Oc1ccccc1C2=C1CC2CCC(C1)N2 [Cpd 123]
**A:** 0.01

**Q:** Record request: log10 of Ki value, item COc1cccc2c1Oc1cc(-c3ccsc3)ccc1C2=C1CC2CCC(C1)N2 [Cpd 106]
**A:** 0.44

**Q:** I am curious: what log10 of Ki value has been reported for CN(C)C(=O)CN(C)C(=O)c1ccc2c(c1)Oc1ccccc1C2=C1CC2CCC(C1)N2 [Cpd 68] ?
**A:** 0.38

**Q:** What value of log10 of Ki has been reported for the following compound? COC(=O)c1ccc2c(c1)Sc1ccccc1C2=C1CC2CCC(C1)N2 [Cpd 76]
**A:** 0.68

**Q:** Report log10 of Ki for Cc1cccc(C)c1OCC(C)NC(=O)c1ccc2c(c1)Oc1ccccc1C2=C1CC2CCC(C1)N2 (stereo not shown) [Cpd 13] please.
**A:** 0.47

**Q:** GET /values?readout=log10 of Ki&item= S=c1[nH]c(-c2ccc3c(c2)Oc2ccccc2C3=C2CC3CCC(C2)N3)no1 [Cpd 93]
**A:** 0.57

**Q:** Bench note: what log10 of Ki did COc1cccc2c1Oc1cc(-c3nnn[nH]3)ccc1C2=C1CC2CCC(C1)N2 [Cpd 82] show?
**A:** -0.51

**Q:** # lookup: log10 of Ki of COC(=O)c1ccc2c(c1)Oc1ccccc1C2=C1CC2CCC(C1)N2 [Cpd 73]
**A:** 0.80

**Q:** Recorded log10 of Ki for COc1cccc2c1Oc1cc(-c3ccccc3NC(C)=O)ccc1C2=C1CC2CCC(C1)N2 [Cpd 108] , please?
**A:** -0.37

**Q:** Looking for the measured log10 of Ki of O=C(NC1CCC(C(F)(F)F)CC1)c1ccc2c(c1)Oc1ccccc1C2=C1CC2CCC(C1)N2 (stereo not shown) [Cpd 62] , can you help?
**A:** 0.87

**Q:** Which value of log10 of Ki has been reported for O=c1[nH]c(-c2ccc3c(c2)Oc2ccccc2C3=C2CC3CCC(C2)N3)ns1 [Cpd 101] in the records?
**A:** -0.33

**Q:** Report log10 of Ki for CC(=O)Nc1ccccc1-c1ccc2c(c1)Sc1ccccc1C2=C1CC2CCC(C1)N2C [Cpd 118] please.
**A:** 0.32

**Q:** Entry COc1cccc2c1Oc1cc(-c3cnc4ccccc4c3)ccc1C2=C1CC2CCC(C1)N2 [Cpd 104] has what log10 of Ki?
**A:** 0.23

**Q:** For the compound S=c1[nH]c(-c2ccc3c(c2)Oc2ccccc2C3=C2CC3CCC(C2)N3)no1 [Cpd 94] , what log10 of Ki is on record?
**A:** -0.66

**Q:** Name the reported log10 of Ki value associated with the compound N#Cc1ccc2c(c1)Oc1ccccc1C2=C1CC2CCC(C1)N2 [Cpd 77]
**A:** 0.39

**Q:** For the compound CC(=O)Nc1ccccc1-c1ccc2c(c1)Sc1ccccc1C2=C1CC2CCC(C1)N2Cc1ncc[nH]1 [Cpd 119] , what log10 of Ki is on record?
**A:** -0.46

**Q:** What value of measured log10 of Ki is listed for COc1cccc2c1Oc1cc(-c3ccoc3)ccc1C2=C1CC2CCC(C1)N2 [Cpd 105] ?
**A:** -0.30
